assay details: yeast display, Sf9 membrane polyspecificity reagent, FACS + sequencing; frameworks hold sequencing errors
reported endpoint: polyreactivity (PSR sort gate)

{"primary sequence": "QVQLVESGGGLVQAGGSLRLSCAASGSTLTYNAMGWYRQAPGKERELVADITS", "recorded measurement": "low polyreactivity"}
{"primary sequence": "QVQLVESGGGLVQAGGSLRLSCAASGFTFGYYAMGWYRQAPGKERELVASISWRGGSTYYADSVKGRFTISRDNAKNTVYLQMNSLKPEDTAVYYCATKYTGPYYRTMNYWGQGTQVTVSS", "recorded measurement": "high polyreactivity"}
{"primary sequence": "QVHLVESGGGLVQAGGSLRLTSAASGRIFGRNAMGWYRQAPGKEREFVAAISRSGASRYYADSVKGRFTISRDNAKNTVYLQMNRLKPEDTAVYYCARTTRQSSAYTYSDEYDYWGQGTQVTVSS", "recorded measurement": "high polyreactivity"}
{"primary sequence": "QVQLVESGGGLVQAGGSLRLRCAASGLIFYVYAMGWYRQAPGKERELVAAISYRGGSTYADSVKGRFTISRDNAKNTVYLQMNSLKPEDTAVYYCAAQRWYVYGLKYHYGYWGQGTQVTVSS", "recorded measurement": "high polyreactivity"}
{"primary sequence": "QVQLVESGGGLVQAGGSLRLSWAASGFTFDSNAMGWSRPAPGKEREVVAAISWSGASTYADSVKGRFTISRDNAKNTVYLQMNSLKPEDTAVYYCAADDEDVLFDYWGQGTQVTVSS", "recorded measurement": "low polyreactivity"}

What value of polyreactivity (PSR sort gate) has been recorded for this entry: QVQLVESGGGLVQAGGSLRLSCAASGFIFDYYAMGWYRQAPGKERELVAGISWSGGSTYYADSVKGRFTISRDNAKNTVYLQMNSLKPEDTAVYYCNAEYSVPFYLYYYWGQGTQVTVSS
low polyreactivity

Now the same for QVQLVESGGGLVQAGGSLRLSCAASGFIFRYYARGWYRQAPGKERELVAAITSTGRTYYADSVKGRFTISRDNAKNTVYLQMNSLKPEDTAVYYCAKAWLRWGEDYWGQGTQVTVSS
low polyreactivity

Now the same for QVQLVESGGGLVQAGGSLRLSCAASGSTFYYYAMGWSRQAPGKERELVATITSGGSTNYADSVKGRFTISRDNAKNTVYLQMNSLKPEDTAVYYCNADDGYSVWGYDYWGQGTQVTVSS
low polyreactivity

Now the same for QVQHVESGGGLLQAGGSLRLSCAASGRIFYGNAMGWYRQATGKERELVAAILWRGGTTYYADSVKGRFTISRDNAMNTVYLLMISLKPEDTSDYNCTADEPYKYYYWGQGTQVTVSS
low polyreactivity

Now the same for QVQLVESGGGLVQAGGSLRLICAASGSTYHYAMGWYRQAPGKERELVASITWRGDTTYYADSVKGRFTISRDNAKYNVYLQMNSLKPEDTAVYYCAAYHFSFGWIRVDYWGQGTQVTVSS
high polyreactivity

Now the same for HFQLVESGGGLVQAGGSLRLSCAASGFTFNDMGWYRLATGKERELVARIDSDDTTNYADSVKGRFTISRDNAKKTVYVLMNSLKPEDTAVYYCNKDYAWLSYQDYDYWGQGTQVTVSS
low polyreactivity

###

assay details: yeast display, Sf9 membrane polyspecificity reagent, FACS + sequencing; frameworks hold sequencing errors
reported endpoint: polyreactivity (PSR sort gate)

Example entries and their recorded answers appear below.
{"primary sequence": "QVQLQESGGGLVQAGGSLRLSCASSGYISQSSVMGWYRQAPGKEREFVASISYGATTYYADSVKGRFTISRDNAKNTVYLQTNSPKPEDTAVYYCAVWVKRGFSHRYWGQGTQVTVSS", "polyreactivity (PSR sort gate)": "high polyreactivity"}
{"primary sequence": "QVRLVESGGGLVQAGGSLRLSCAASGSIFSPYAMGWYRQAPGKERELVAALSYGVGNTYYADSVKGRFTISRDNAKNTVYLQMNSLKPEDTAVYYCAAEEYDYVYPHYFTKGYYWGQGTQVTVSS", "polyreactivity (PSR sort gate)": "high polyreactivity"}
{"primary sequence": "QVQLVESGGGLVQAGGSLRLSCAASGITFYYYTMGWYRQAPGKERELVAGITRGGRTYYADSVKGRFTISRDNAKNTVYLQMNSLKPEDTAVYYCAADYSYIYGFDYWGQGTQVTVSS", "polyreactivity (PSR sort gate)": "low polyreactivity"}
{"primary sequence": "QVQLVESGGGLVQAGGSLRLSCAASGRTLRTYTMGWYRQAPGKERELVAAISSSDDSTYYADSVKGRFTISRDNEKNTVYLQMNSLKPEDNAVYSCAKDGLYPTEYGYWGQGTQVTVSS", "polyreactivity (PSR sort gate)": "high polyreactivity"}
{"primary sequence": "QVQLVESGGGLVQAGGSLRLSCAASGFTFFQNHRGWYRQAPGTERELVADISYRGRRPYYADSVKGRFTISRDNAKNTVYLQMNCLKPVDTAVYYCARRSSKPSSIQYYYCGQGTQVTVSS", "polyreactivity (PSR sort gate)": "high polyreactivity"}
{"primary sequence": "QVQLVESGGGLVQAGGILRLSCAASGSTFSPYAMGWYRQAPGKERELVANITISGGSTYYADSVKGRFTISRDNAKNTVYLQMNSLKAEDTAVYYCNADSLIRWLFTVVIFDYWGQGTQVTVSS", "polyreactivity (PSR sort gate)": "low polyreactivity"}
{"primary sequence": "QDQLVESGGGLVQAGGSLRLSCAASGLNLGIYAMGWYRQAPGKERELVAAISRGGGSTYYADSVKGRFTISRDNAKNTVYLQMNSLKPEDTAVFYCNAVRYRYGVFPYYYWGQGTQVTVSS", "polyreactivity (PSR sort gate)": "high polyreactivity"}
{"primary sequence": "QVHLVESGGGLVQAGGSLRLSCAASGSTFDTYAMGWYRQAPGKERELVAAISYRGGNTYYADSVKGRFTISRDNAKNTVYLQMNSLKPEDTAVYYCNAGVSIGRSRRYDYWGQGTQVTVSS", "polyreactivity (PSR sort gate)": "low polyreactivity"}
{"primary sequence": "QVQHVESGGGLVQEGGSLRLSCAASARTFPFYAMGWYRQATGKERELVAAITRSDDSPYYADSVKGRFTFSRDNAKNTVYVQMHSLKPEDIAVYYCAADVEGLTVESHVYRVGFDYCGQGTQVTVSS", "polyreactivity (PSR sort gate)": "low polyreactivity"}
{"primary sequence": "QVQLVESGGGLVQAAGSLRLSCAASGRIFEIYAMGWYRQAPGKERELVAGITSVGSTNYADSVKGRFTISRDNAKNTVYLQMNSLKPVDTAVYYCAADTSVHSEVDYCGQGTQVTVSS", "polyreactivity (PSR sort gate)": "low polyreactivity"}

What value of polyreactivity (PSR sort gate) has been recorded for this entry: QVQLVESGGGLVQAGGSLRLSCAASGLTFDQYVMGWYRQAPGKERELVAAISRRGGGTYYADSVKGRFTISRDNAKNTVYLQMNSLKPEDTAVYYCNTDQAWRSWRGNYPFLTGNYWGQGTQVTVSS
high polyreactivity

Now the same for QVQLVESGGGLVQAGGSLRLSCAASGITFWKYAMGWYRQAPGKERELVAAISGRGGSTYYADSVKGRFTISRDNAKNTVYLQMNSLKPEDTAVFYCAKFPGISGYNYWGQGTQVTVSS
high polyreactivity

Now the same for QVQLVESGGGLVQAGGSLRLSCAASGITFVLYAMGWYRQAPGKERELVAANSSSGGRTYYADSVKGRFTISRDYAKNTVYLQMNSLKPEDTAVYYCAKDTYGFAANRPAGDGYWGQGTQVTVSS
high polyreactivity

###

assay details: yeast display, Sf9 membrane polyspecificity reagent, FACS + sequencing; frameworks hold sequencing errors
reported endpoint: polyreactivity (PSR sort gate)

Example entries and their recorded answers appear below.
{"primary sequence": "QVQLVESGGCLVQAGGSLRLSCAASGRTFRGYAMGWYRQAPGKERELVARISVSGGSTYYADSVKGRFTISRDNAKNTVYLQMNSLTPDDTAVYYCNARPYTYWRSQYDYWGQGTQVTVSS", "reported endpoint": "polyreactivity (PSR sort gate)", "recorded measurement": "high polyreactivity"}
{"primary sequence": "QVQLVESGGGLVQAGGSLRLSCAASGSIFAVNAMGLYRQAPGKERELVATITGRDGSTYYADSVKGRFTISRDNAKNTVYLQMNRLKPEDTAVYYCTARRKRTYDYWGQGTQVTVSS", "reported endpoint": "polyreactivity (PSR sort gate)", "recorded measurement": "high polyreactivity"}
{"primary sequence": "QVQLVESGRGLVQAGGSLRLSCAASGRIFRYYTMGCYRQAPGKERELVASITYRGTSTYYADSVKGRFTISRDNAKNTVYLQMTSLKPEDTAVYYCNKDLFFRSISSKYDYWGQGTQVTVSS", "reported endpoint": "polyreactivity (PSR sort gate)", "recorded measurement": "high polyreactivity"}
{"primary sequence": "QVQLVESGGGLVQAGGSLRLSCAASGSTFRRYAMGWYRQAPGKERELVASISWSGGSTSYADSVKGRFTISRDTAKNTVYLQMNSLKPEDTAVYYCAAVRYYWGEYYARYAYEYWGQGTQVTVSS", "reported endpoint": "polyreactivity (PSR sort gate)", "recorded measurement": "high polyreactivity"}

What value of polyreactivity (PSR sort gate) has been recorded for this entry: QVQLVESGGGLVQAGGSLRLSCAASGYILYGNTMGWYRQAPGKERELVAAISGGGSTNYADSVKGRFTISRDNAKNTVYLQMNSLKPEETAVYYCAVDVKIGTDFIGVVIPGDYWGQGTQVTVSS
low polyreactivity

Now the same for IIQAGGSLRLSCAASGSTLIGYTMGWYRQAPGKERELVAAITWGAGSTNYADSVKGRFTISRDNAKNTVYLQMNSLKPEDTAVYYCNADSTSDPRYLGEYDYWGQGTQVTVSS
low polyreactivity

Now the same for QVHLQESGDGLLQAVGSLRLSCAASGYISGYYYRGWYRQAPGKERELVAGIDAFGSSTNYADCVKGRFTISRDNSTNTVYLQMNSLKPEDTAVYYWAARPDGDRLFSYWGQGTQVTVSS
low polyreactivity

Now the same for QVQLVESGGGLVQAGGSLRLSCAASGITFDDYAMGWYRQAPGKERELVAAISESGDSTYYADSVKGRFTISRDNAKNTVYFQMNSLKPEDTAVYYCAADSTYYYGWGMYYWGQGTQVTVSS
high polyreactivity

Now the same for QVQLVESGGGLVQAGGSLRLSCAASGSTFFLYGRGWYRQARGKERELVATISKRGGSTHYADSVKGRFTISRDNAKNTVYVQKHSLKPEDTAVYYCAAGRPGVSFKEWSYKPSSSYDYWGQGTQVTVSS
low polyreactivity

Now the same for QVQLVESGGGLVQAGGSLRLSCAASGFTFPQYAMGWYRQAPGKERELFAAISKRSGGTRYADSGKGRFTISRDNSKNTVYLHMKSLKPEDTAVNYCINYGQVPGYFTLEYLGQGTQVTVSS
high polyreactivity

Now the same for QVQLVESGGGLVQAGGSLRLSCAASGRTFKSYAMGWNRQAPGQERELVATITRDGRTNYADSVKGRFTISRDNAKNTVYLQLNSLKPEDTAVYYCNADSRYRYDYWGQGTQVTVSS
low polyreactivity

Data credit: the nanobody polyreactivity screen of Harvey et al. (2022)
